system tested: human GPR119 receptor (Homo sapiens, UniProt Q8TDV5, S329A/T327A)
Construct: N-terminal leader […]
Sequence (Q8TDV5 with tags, fused parts or gaps T327A/S329A): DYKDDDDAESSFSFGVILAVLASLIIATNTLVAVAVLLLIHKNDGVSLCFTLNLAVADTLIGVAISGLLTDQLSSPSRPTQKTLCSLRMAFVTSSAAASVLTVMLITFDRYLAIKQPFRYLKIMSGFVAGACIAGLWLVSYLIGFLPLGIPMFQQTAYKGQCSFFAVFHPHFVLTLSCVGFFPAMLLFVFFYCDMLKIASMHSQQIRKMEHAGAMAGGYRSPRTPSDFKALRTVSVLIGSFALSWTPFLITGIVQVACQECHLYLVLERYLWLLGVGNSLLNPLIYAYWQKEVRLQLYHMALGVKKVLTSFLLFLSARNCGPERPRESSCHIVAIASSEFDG
procedure details: cAMP assay (LANCE cAMP-384 Kit), cAMP accumulation in HEK293 cells stably expressing mutant human GPR119 receptor
experimental setup: cAMP accumulation; HEK293 cells stably expressing a mutant form of the human GPR119 receptor; 20 min at 37° C.
Items are presented alongside their recorded pEC50.
// pEC50: -log10(molar conc.)

In: Param item = CC(C)(C)OC(=O)N1CCC(Oc2ncnc(N3CCc4cc(S(C)(=O)=O)ccc43)c2F)CC1 ; retrieve measured pEC50.
Out: 6.42

In: Param item = CCN(c1cc(N2CCc3cc(S(C)(=O)=O)ccc32)ncn1)C1CCN(C(=O)OC(C)(C)C)CC1 ; retrieve measured pEC50.
Out: 7.54

Others:
In: Param item = CCC(C)OC(=O)N1CCC(Oc2cc(N3CCc4cc(S(C)(=O)=O)ccc43)ncn2)CC1 (stereo not shown) ; retrieve measured pEC50.
Out: 7.46

In: Param item = COCC(C)OC(=O)N1CCC(Oc2cc(N3CCc4cc(S(C)(=O)=O)ccc43)ncn2)CC1 (stereo not shown) ; retrieve measured pEC50.
Out: 7.00

====

Items are presented alongside their recorded pEC50.
system tested: human GPR119 receptor (Homo sapiens, UniProt Q8TDV5, S329A/T327A)
Construct: N-terminal leader […]
procedure details: cAMP assay (LANCE cAMP-384 Kit), cAMP accumulation in HEK293 cells stably expressing mutant human GPR119 receptor
experimental setup: cAMP accumulation; HEK293 cells stably expressing a mutant form of the human GPR119 receptor; 20 min at 37° C.
// pEC50: -log10(molar conc.)

In: Give human GPR119 receptor (Homo sapiens, UniProt Q8TDV5, S329A/T327A) pEC50 for CS(=O)(=O)c1ccc2c(c1)CCN2c1cc(OC2CCN(C(=O)OC3CCN(Cc4cccc(F)c4F)C3)CC2)ncn1 (stereo not shown) [Compound 21-4]
Out: 6.46

Consider the record given below.
In: Give human GPR119 receptor (Homo sapiens, UniProt Q8TDV5, S329A/T327A) pEC50 for CS(=O)(=O)c1ccc2c(c1)CCN2c1cc(OC2CCN(C(=O)OC3CCC3)CC2)ncn1 [Compound 5-1]
Out: 7.62

====

system tested: human GPR119 receptor (Homo sapiens, UniProt Q8TDV5, S329A/T327A)
Construct: N-terminal leader […]
procedure details: cAMP assay (LANCE cAMP-384 Kit), cAMP accumulation in HEK293 cells stably expressing mutant human GPR119 receptor
experimental setup: cAMP accumulation; HEK293 cells stably expressing a mutant form of the human GPR119 receptor; 20 min at 37° C.
readout label: log10(EC50) (log10 of the value in nM)
Log scale reminder: EC50 in nM, then log10 taken.

Study these solved cases before continuing.
In: Param item = CS(=O)(=O)c1ccc2c(c1)CCN2c1cc(OC2CCN(C(=O)OCC3CC3)CC2)ncn1 ; retrieve measured log10(EC50).
Out: 1.36

In: Param item = CS(=O)(=O)c1ccc2c(c1)CCN2c1cc(OC2CCN(C(=O)OC3CCN(Cc4ccc(F)cc4)C3)CC2)ncn1 (centres unmarked) ; retrieve measured log10(EC50).
Out: 2.53

In: Param item = CS(=O)(=O)c1ccc2c(c1)CCN2c1cc(OC2CCN(C(=O)OC(CF)CF)CC2)ncn1 ; retrieve measured log10(EC50).
Out: 2.38

Others:
In: Param item = COCN(c1cc(N2CCc3cc(S(C)(=O)=O)ccc32)ncn1)C1CCN(C(=O)OC(C)(C)C)CC1 ; retrieve measured log10(EC50).
Out: 2.96

In: Param item = CC(C)OC(=O)N1CCC(Oc2cc(N3CCc4cc(S(C)(=O)=O)ccc43)ncn2)CC1 ; retrieve measured log10(EC50).
Out: 1.52

In: Param item = CC(C)OC(=O)N1CCC(Oc2ccnc(N3CCc4cc(S(C)(=O)=O)ccc43)c2)CC1 ; retrieve measured log10(EC50).
Out: 2.77

In: Param item = CC(C)OC(=O)N1CCC(N(C)c2cc(N3CCc4cc(S(C)(=O)=O)ccc43)ncn2)CC1 ; retrieve measured log10(EC50).
Out: 1.84

In: Param item = COc1c(OC2CCN(C(=O)OC(C)C)CC2)ncnc1N1CCc2cc(S(C)(=O)=O)ccc21 ; retrieve measured log10(EC50).
Out: 2.30

In: Param item = CC(C)(C)OC(=O)N1CCC(Oc2cc(N3CCc4nc(Cl)ccc43)ncn2)CC1 ; retrieve measured log10(EC50).
Out: 2.88

In: Param item = CCC(C)N(c1cc(N2CCc3cc(S(C)(=O)=O)ccc32)ncn1)C1CCN(C(=O)OC(C)(C)C)CC1 (centres unmarked) ; retrieve measured log10(EC50).
Out: 1.98

In: Param item = CC(C)OC(=O)N1CCC(Nc2cc(N3CCc4cc(S(C)(=O)=O)ccc43)ncn2)CC1 ; retrieve measured log10(EC50).
Out: 2.79

In: Param item = CS(=O)(=O)c1ccc2c(c1)CCN2c1cc(OC2CCN(C(=O)OC3CCN(Cc4cc(F)cc(F)c4)C3)CC2)ncn1 (centres unmarked) ; retrieve measured log10(EC50).
Out: 2.49

====

system tested: human GPR119 receptor (Homo sapiens, UniProt Q8TDV5, S329A/T327A)
Construct: N-terminal leader […]
procedure details: cAMP assay (LANCE cAMP-384 Kit), cAMP accumulation in HEK293 cells stably expressing mutant human GPR119 receptor
experimental setup: cAMP accumulation; HEK293 cells stably expressing a mutant form of the human GPR119 receptor; 20 min at 37° C.
readout label: EC50 (nM)
Unit nM implied. Number only.

In: Param item = CC(C)COC(=O)N1CCC(Oc2cc(N3CCc4cc(S(C)(=O)=O)ccc43)ncn2)CC1 ; retrieve measured EC50.
Out: 42

In: Param item = CN(c1cc(N2CCc3cc(S(C)(=O)=O)ccc32)ncn1)C1CCN(C(=O)OC(C)(C)C)CC1 ; retrieve measured EC50.
Out: 51

In: Param item = C=CCN(c1cc(N2CCc3cc(S(C)(=O)=O)ccc32)ncn1)C1CCN(C(=O)OC(C)(C)C)CC1 ; retrieve measured EC50.
Out: 23

Others:
In: Param item = Cc1c(OC2CCN(C(=O)OC(C)C)CC2)ncnc1N1CCc2ncccc21 ; retrieve measured EC50.
Out: 312

In: Param item = CS(=O)(=O)c1ccc2c(c1)CCN2c1cc(OC2CCN(C(=O)OC3CCN(Cc4cccc(F)c4)C3)CC2)ncn1 (centres unmarked) ; retrieve measured EC50.
Out: 278

Recorded values, source patent US8481731B2.
